Quick list: T/C per entry.
Test system: MX-1 breast xenograft, nude mice, tumor weight T/C
Test: NCI In Vivo Anticancer Drug Screen. Data for tumor model Human Mammary Carcinoma MX-1 Xenograft (intrarenal inoculation) in NU/NU Swiss (nude) mice
Conditions: endpoint: mean tumor weight change; dose: 100.0 mg/kg/injection; schedule: Q04DX003 (sc); vehicle: suspension in saline; higher = larger tumour
Inconclusive results are not listed.
OBSERVABLE: T/C

[[record]]
compound = "O=C1OC(=O)[C@H]2[C@@H]1[C@H]1C=C[C@@H]2OC1=O"
reported_value = "89 % of control"

[[record]]
compound = "CC(C)=CCNc1ncnc2c1ncn2C1OC(CO)C(O)C1O (stereo not given)"
reported_value = "122 % of control"

[[record]]
compound = "CC/C(=C(\\c1ccccc1)c1ccc(OCCN(C)C)cc1)c1ccccc1"
reported_value = "61 % of control"

[[record]]
compound = "Cc1c2cc[n+](CCN3CCCCC3)cc2c(C)c2c1[nH]c1ccc(O)cc12"
reported_value = "159 % of control"

[[record]]
compound = "CN(CCN(C)C(=O)CCOS(C)(=O)=O)C(=O)CCOS(C)(=O)=O"
reported_value = "-86 % of control"

[[record]]
compound = "C=C1C(=O)OCC1C(=O)O (stereo not given)"
reported_value = "94 % of control"

[[record]]
compound = "Cn1cnc([N+](=O)[O-])c1Sc1ncn[nH]1"
reported_value = "72 % of control"

[[record]]
compound = "O=CC(S)CO (stereo not given)"
reported_value = "151 % of control"

[[record]]
compound = "CN(N=O)C(N)=O"
reported_value = "17 % of control"

[[record]]
compound = "CN(C)N=Nc1cn[nH]c1C(N)=O"
reported_value = "98 % of control"


* * *

Tested on: MX-1 breast xenograft, nude mice, tumor weight T/C
Assay: NCI In Vivo Anticancer Drug Screen. Data for tumor model Human Mammary Carcinoma MX-1 Xenograft (intrarenal inoculation) in NU/NU Swiss (nude) mice
Conditions: endpoint: mean tumor weight change; dose: 600.0 mg/kg/injection; schedule: Q04DX003 (sc); vehicle: saline with Tween-80; higher = larger tumour
Results filed as inconclusive are left out.
OBSERVABLE: T/C

[[record]]
compound = "CCOC(=O)C(C)(C)Oc1ccc(Cl)cc1"
reported_value = "90 % of control"

[[record]]
compound = "NC(=S)N/N=C\\c1ncccc1OCc1cccc(N)c1"
reported_value = "75 % of control"

[[record]]
compound = "O=S1(=O)C=C(c2ccccc2)C(c2ccccc2)=C1"
reported_value = "71 % of control"

[[record]]
compound = "O=c1cc(-c2ccccc2)[nH]c2c1CCCC2"
reported_value = "53 % of control"

[[record]]
compound = "CC1(C)OCC2OC=CC(=O)C2O1 (configuration not stated)"
reported_value = "112 % of control"

[[record]]
compound = "CC1(C)OC1CS(=O)c1ccccc1 (configuration not stated)"
reported_value = "121 % of control"

[[record]]
compound = "C=CCNc1nc2c(s1)CCc1cc(OC)c(OC)cc1-2"
reported_value = "96 % of control"

[[record]]
compound = "O=C1SC(c2ccccc2)=S=C1c1ccccc1"
reported_value = "78 % of control"

[[record]]
compound = "c1cc(OCC2CO2)ccc1OCC1CO1 (configuration not stated)"
reported_value = "103 % of control"

[[record]]
compound = "Cc1cc2nc3c(=O)[nH]c(=O)nc-3n(CC(O)C(O)C(O)C(O)CO)c2cc1C (configuration not stated)"
reported_value = "89 % of control"

[[record]]
compound = "O=C1[C@H]2CCC[C@H]2[C@H]2CCC[C@@H]12"
reported_value = "123 % of control"

[[record]]
compound = "COC(=O)C(Cl)(Cl)N=Nc1c(Cl)cc(Cl)c(C)c1Cl"
reported_value = "74 % of control"

